read-out: Interleukin-8 (IL8), CXCL8 (gene 3576); experiment: BSK_LPS_IL8: BioMAP Diversity Plus: LPS Assay for Interleukin-8 (IL8) Biomarker Activity (AID 2283078); settings: primary human HUVEC with PBMC; actives raise or lower the signal
The source made the active and inactive calls. The calls were made as follows: active = hit-call score of the fitted dose curve at least 0.9, where 1 is the maximum; inactive = score below 0.9.
READOUT KIND: AC50

Sample answers from the record:
molecule=CC/C=C\CCOC(=O)c1ccccc1O result="33.5 µM (active)"
molecule=CC(C)[N+](C)(CCOC(=O)C1c2ccccc2Oc2ccccc21)C(C)C result=inactive
molecule=CC/C=C\C/C=C\C/C=C\CCCCCCCC(=O)OC result="29 µM (active)"
molecule=CC1(C)CC(O)CC(C)(C)N1[O] result=inactive

Give AC50 for each of the items listed below.
1. C=CC(=O)OCCCCCCCC(C)C
2. Fc1ccc(Br)cc1
3. CCCC(C)C(=O)OCC (centres undefined)
4. C=CC(=O)OCC(C)OCC(C)OCC(C)OC(=O)C=C (centres undefined)
5. Clc1cc(Cl)c(Cl)c(Cl)c1Cl
6. O=C1CCCCCCCCCCC1
7. CC(C)c1cccc(C(C)C)c1N

Solution:
["inactive", "inactive", "inactive", "11.9 µM (active)", "inactive", "inactive", "inactive"]

Give AC50 for each listed item.
1. CCOC(=O)C1=NN(c2ccc(Cl)cc2Cl)C(C)(C(=O)OCC)C1 (centres undefined)
2. COc1ccc(C(=O)/C(Br)=C\C(=O)O)cc1
3. O=C(Oc1ccccc1)c1ccccc1C(=O)Oc1ccccc1

Solution:
["inactive", "20 µM (active)", "inactive"]

====

molecular target: Hypoxia-inducible factor 1-alpha (Homo sapiens) (UniProt Q16665); assay: ATG_HIF1a_CIS: Attagene CIS-FACTORIAL HepG2 Assay for human Hypoxia Inducible Factor 1 (HIF1A) (AID 2282951); settings: HepG2 Attagene cis-factorial HIF1a reporter transcription; actives raise or lower the signal
Sequence (Q16665 whole entry, looked up): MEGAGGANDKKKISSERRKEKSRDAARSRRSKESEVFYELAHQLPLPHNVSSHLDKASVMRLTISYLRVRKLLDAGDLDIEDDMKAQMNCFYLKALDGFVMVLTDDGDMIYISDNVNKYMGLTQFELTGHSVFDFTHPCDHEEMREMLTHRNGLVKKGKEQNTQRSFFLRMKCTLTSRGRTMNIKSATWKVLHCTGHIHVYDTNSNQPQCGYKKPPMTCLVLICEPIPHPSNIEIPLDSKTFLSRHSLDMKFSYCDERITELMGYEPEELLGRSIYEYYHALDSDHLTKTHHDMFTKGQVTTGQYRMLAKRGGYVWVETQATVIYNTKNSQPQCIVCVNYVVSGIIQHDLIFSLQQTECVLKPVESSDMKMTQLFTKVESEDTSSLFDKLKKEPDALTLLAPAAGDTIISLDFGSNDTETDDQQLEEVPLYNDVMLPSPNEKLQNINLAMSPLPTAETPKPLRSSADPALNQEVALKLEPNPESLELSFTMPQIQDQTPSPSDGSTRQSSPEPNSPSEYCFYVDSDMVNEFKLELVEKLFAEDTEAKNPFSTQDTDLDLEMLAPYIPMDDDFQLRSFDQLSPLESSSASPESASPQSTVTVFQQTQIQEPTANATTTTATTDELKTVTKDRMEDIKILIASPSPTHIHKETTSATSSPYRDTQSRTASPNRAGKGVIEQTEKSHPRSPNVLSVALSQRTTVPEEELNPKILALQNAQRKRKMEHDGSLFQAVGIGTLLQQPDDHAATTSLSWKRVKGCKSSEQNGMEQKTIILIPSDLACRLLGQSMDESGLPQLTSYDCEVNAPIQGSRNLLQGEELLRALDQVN
Calls of active or inactive are those of the source. How the source made its calls: active means hit-call score of the fitted dose curve at least 0.9, where 1 is the maximum; inactive means score below 0.9.
Reply using exactly one outcome from Yes (active), No (inactive)

Here are 6 compounds together with their reported answers.
compound=CC(c1cc(C(C)(C)C)cc(C(C)(C)C)c1O)c1cc(C(C)(C)C)cc(C(C)(C)C)c1O assayed_target="Hypoxia-inducible factor 1-alpha (Homo sapiens) (UniProt Q16665)" qualitative_label=No
compound=CC(=O)OCCc1ccccc1 assayed_target="Hypoxia-inducible factor 1-alpha (Homo sapiens) (UniProt Q16665)" qualitative_label=No
compound=CC(C)(C)C1CCC(=O)CC1 assayed_target="Hypoxia-inducible factor 1-alpha (Homo sapiens) (UniProt Q16665)" qualitative_label=No
compound=O=C(O)c1ccc2c(c1)C(=O)OC2=O assayed_target="Hypoxia-inducible factor 1-alpha (Homo sapiens) (UniProt Q16665)" qualitative_label=No
compound=CCCCCOC(=O)CCCCC assayed_target="Hypoxia-inducible factor 1-alpha (Homo sapiens) (UniProt Q16665)" qualitative_label=No
compound=CC(C)(c1ccccc1)c1ccc(Nc2ccc(C(C)(C)c3ccccc3)cc2)cc1 assayed_target="Hypoxia-inducible factor 1-alpha (Homo sapiens) (UniProt Q16665)" qualitative_label=No

Problem: What did this assay record as the result for CC(C)CCCCCOC(=O)CS ?
Solution: No

Problem: For this compound, state the assay outcome: O=C(O)CCCC(=O)O
Solution: No

Problem: Record request — test call for CCCCCCCCCCCCCc1ccccc1
Solution: No

Problem: For this compound, state the assay outcome: CCCCc1ccc(Cl)cc1
Solution: No

Problem: Query: recorded result category for O=S(=O)(O)c1ccc(N=Nc2c(O)ccc3ccccc23)cc1 in this test
Solution: Yes

Problem: Could you check what this test reported for COC(C=C(C)CCC=C(C)C)OC ?
Solution: No

Problem: Record lookup: outcome of this test for CC(C)=CCl ?
Solution: No

Problem: Test call for this compound, please: O=C(O)c1cc(O)c2ccccc2c1O
Solution: Yes

Problem: Call for entry CC1=C(O)C(=O)C(C)O1 (stereo unspecified) :
Solution: No

Problem: Which outcome did this test record for the compound Cc1cc(C)n(CO)n1 ?
Solution: No

Values were extracted from PubChem BioAssay (EPA / NIEHS).
